Ref: patent US9630929B2

- EXPERIMENTAL_TARGET: NaV1.7 (Homo sapiens (Human))
- Sequence (Q15858 other isoform, or with tags, fused parts or gaps): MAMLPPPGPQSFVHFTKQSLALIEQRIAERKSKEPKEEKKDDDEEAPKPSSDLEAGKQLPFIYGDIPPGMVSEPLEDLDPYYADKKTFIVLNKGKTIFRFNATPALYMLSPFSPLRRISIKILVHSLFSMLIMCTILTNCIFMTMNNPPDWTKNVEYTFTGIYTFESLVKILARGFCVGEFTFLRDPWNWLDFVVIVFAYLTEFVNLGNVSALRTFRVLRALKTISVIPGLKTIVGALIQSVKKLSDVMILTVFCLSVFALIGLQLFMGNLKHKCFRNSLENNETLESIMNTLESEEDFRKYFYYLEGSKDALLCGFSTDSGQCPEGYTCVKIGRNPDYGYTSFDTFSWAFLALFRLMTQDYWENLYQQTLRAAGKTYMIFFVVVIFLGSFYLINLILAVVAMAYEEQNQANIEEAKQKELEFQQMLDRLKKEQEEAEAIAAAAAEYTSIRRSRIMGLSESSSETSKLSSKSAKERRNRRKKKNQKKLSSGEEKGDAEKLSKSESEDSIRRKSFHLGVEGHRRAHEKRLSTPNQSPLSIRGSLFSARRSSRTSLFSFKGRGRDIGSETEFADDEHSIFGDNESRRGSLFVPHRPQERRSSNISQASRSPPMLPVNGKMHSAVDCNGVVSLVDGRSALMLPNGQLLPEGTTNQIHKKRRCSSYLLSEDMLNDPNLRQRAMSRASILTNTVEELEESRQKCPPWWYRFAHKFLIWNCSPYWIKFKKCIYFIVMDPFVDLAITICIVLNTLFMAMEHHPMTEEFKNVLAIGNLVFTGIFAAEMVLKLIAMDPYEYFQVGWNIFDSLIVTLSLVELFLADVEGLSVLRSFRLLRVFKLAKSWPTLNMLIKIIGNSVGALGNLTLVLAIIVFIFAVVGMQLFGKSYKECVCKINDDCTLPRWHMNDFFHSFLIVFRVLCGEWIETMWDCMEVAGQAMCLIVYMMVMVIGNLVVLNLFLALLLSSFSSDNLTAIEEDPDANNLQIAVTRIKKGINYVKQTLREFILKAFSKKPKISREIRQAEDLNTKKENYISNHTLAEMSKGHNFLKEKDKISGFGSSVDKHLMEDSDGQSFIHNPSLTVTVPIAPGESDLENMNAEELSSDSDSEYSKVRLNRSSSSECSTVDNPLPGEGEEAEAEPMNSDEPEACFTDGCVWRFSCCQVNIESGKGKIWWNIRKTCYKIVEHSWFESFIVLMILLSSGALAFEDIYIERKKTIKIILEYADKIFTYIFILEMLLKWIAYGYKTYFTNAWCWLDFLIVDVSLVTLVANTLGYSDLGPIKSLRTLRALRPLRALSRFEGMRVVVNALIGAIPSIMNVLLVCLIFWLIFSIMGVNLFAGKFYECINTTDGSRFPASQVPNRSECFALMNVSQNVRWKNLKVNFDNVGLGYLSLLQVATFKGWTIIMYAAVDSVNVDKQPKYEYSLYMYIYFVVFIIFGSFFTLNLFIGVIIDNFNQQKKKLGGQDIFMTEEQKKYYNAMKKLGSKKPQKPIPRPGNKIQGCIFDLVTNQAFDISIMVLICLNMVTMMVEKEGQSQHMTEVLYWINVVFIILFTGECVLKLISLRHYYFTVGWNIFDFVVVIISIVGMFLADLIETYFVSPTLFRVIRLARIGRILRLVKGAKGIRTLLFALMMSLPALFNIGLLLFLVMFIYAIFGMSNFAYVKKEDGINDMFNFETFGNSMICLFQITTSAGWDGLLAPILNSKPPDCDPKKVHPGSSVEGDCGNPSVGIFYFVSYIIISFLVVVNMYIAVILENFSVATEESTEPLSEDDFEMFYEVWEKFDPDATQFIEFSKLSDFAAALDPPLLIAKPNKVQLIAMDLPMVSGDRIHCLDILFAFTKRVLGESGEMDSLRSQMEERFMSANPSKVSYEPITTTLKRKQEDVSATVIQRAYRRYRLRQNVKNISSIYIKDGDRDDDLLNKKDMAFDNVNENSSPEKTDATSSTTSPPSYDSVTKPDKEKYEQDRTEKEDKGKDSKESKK
- Sequence (Q07699 19-218 partner): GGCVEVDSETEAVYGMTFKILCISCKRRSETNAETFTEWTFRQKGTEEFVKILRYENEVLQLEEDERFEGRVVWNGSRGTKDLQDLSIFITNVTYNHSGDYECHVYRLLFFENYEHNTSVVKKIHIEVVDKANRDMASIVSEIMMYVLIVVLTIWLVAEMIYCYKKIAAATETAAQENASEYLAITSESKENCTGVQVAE
- TEST_NAME: Patch voltage clamp electrophysiology (EP), affinity for the inactivated state of Nav1.7
- Type: cell-based
- MEASUREMENT_CONDITIONS: HEK-293 cells expressing human Nav1.7 with β1 subunit, read-out: NaV1.7 IC50
pIC50: −log10 of the molar value.
Each entry below lists one item and its recorded pIC50 value.
MEASURED_PARAMETER: pIC50

• O=S(=O)(Nc1ncns1)c1ccc(OC[C@@H]2CNCC[C@H]2c2ccc(Cl)cc2)c(F)c1 (relative stereo) [Example 59] = 8.07
• Cc1cc(NS(=O)(=O)c2cc(F)c(OC[C@@H]3CNCC[C@H]3c3ccc(Cl)cc3)cc2F)no1 (relative stereo) [Example 56] = 5.72
• Cc1cnc(NS(=O)(=O)c2cc(F)c(OC[C@@H]3CNCC[C@H]3c3ccc(Cl)cc3)cc2F)s1 (relative stereo) [Example 57] = 6.94
• O=S(=O)(Nc1ncns1)c1cc(F)c(OC[C@@H]2CCNC[C@H]2c2ccc(F)cc2)cc1F (relative stereo) [Example 82] = 7.50
• O=S(=O)(Nc1ncns1)c1cc(F)c(OC[C@@H]2CNCC[C@H]2c2ccc(F)cc2)cc1F (relative stereo) [Example 45] = 8.17
• O=S(=O)(Nc1nncs1)c1cc(F)c(OC[C@@H]2CNCC[C@H]2c2ccc(Cl)cc2)cc1F (relative stereo) [Example 51] = 7.07
